// data source = patent US11820766B2

- ASSAYED SYSTEM: human MGL from HeLa cells (Homo sapiens, UniProt Q99685)
- Construct: combining endogenously expressed MGL from HeLa cells with test compounds; endogenous in cells; host or cells: HeLa cells / cell homogenates
- Sequence (Q99685 1-303): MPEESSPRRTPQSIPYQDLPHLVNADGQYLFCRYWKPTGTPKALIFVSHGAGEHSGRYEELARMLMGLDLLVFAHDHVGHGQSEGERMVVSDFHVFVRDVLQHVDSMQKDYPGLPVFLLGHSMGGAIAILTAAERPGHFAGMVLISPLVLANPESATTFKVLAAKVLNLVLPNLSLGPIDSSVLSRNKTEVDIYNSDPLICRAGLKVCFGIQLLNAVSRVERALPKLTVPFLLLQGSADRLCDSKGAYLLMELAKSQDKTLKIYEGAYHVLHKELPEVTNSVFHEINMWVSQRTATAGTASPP
- EXPERIMENT: In vitro MGL activity assay: [glycerol-1,3-3H]-oleyl glycerol cleavage by MGL from HeLa cells
- Type: biochemical
- CONDITION INFO: 300 nM [Glycerol-1,3-3H]-oleyl glycerol, one hour incubation
PROPERTY MEASURED: IC50 (nM)
Express it in nM; write the number only.

* Cc1ncn(-c2cccc(C(=O)N3CCc4c(nn(C)c4-c4cc(F)c(F)c(F)c4)[C@@H]3C)c2)n1 [Example 276] | 145
* Cc1nc(C(=O)N2CCc3c(nn(C)c3-c3cc(F)c(F)c(F)c3)[C@@H]2C)nn1-c1ccccc1 [Example 321] | 14.8
* C[C@H]1c2nn(C)c(-c3cc(F)c(F)c(F)c3)c2CCN1C(=O)c1cccc(-c2cn[nH]c2)c1 [Example 272] | 14.6

# next compound below
Find the recorded IC50 belonging to COc1ccc(C(=O)N2CCc3c(nn(C)c3-c3cc(F)c(F)c(F)c3)[C@@H]2C)cn1 [Example 300] and report it.
263
